Target: P2Y purinoceptor 14 (Homo sapiens)
Details: HEK293, filed as antagonist, dose 100.0 nM
readout: inhibition (%)
Reply numerically in %, unit not repeated.

Below: 3 compounds and their reported inhibition.
compound string: CCc1ccc(C(=O)Nc2cc(C(=O)O)nn2Cc2ccc(F)cc2)cc1
test value: 97.9
//
compound string: Cc1ccc(C(=O)Nc2cc(C(=O)O)nn2Cc2ccccc2C(F)(F)F)cc1
test value: 93
//
compound string: Cc1ccc(C(=O)Nc2cc(C(=O)O)nn2Cc2cc(F)cc(F)c2)cc1
test value: 79.8

Moving on to another compound below.
Reported inhibition for Cc1ccc(C(=O)Nc2cc(C(=O)O)nn2Cc2ccccc2F)cc1 was 58.5
